Hey, just so you know, these numbers are from the supplement of paper PMC9170038.

apparent KD of K4 kissing-loop reporter values, listed per item
# Tested on: K4 kissing-loop RNA reporter;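 further: bound reporter read as fluorescence of individual clusters on recovered sequencing chips by microscopy, with normalized cluster intensities fitted with a binding model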
# TEST SUMMARY: apparent KD of K4 kissing-loop reporter; higher = weaker reporter binding
# CONDITION DETAILS: Eterna round: R107; input ligand: none
MEASURED QUANTITY: apparent KD of K4 kissing-loop reporter (µM)

- SEQ STRING: "ACGACGCAUAGUGAUACCAGCUAUAUAUGAGUGAUGUUCUACCUAAAAUGGUAAUAAUUUAGCCCUUGGCAGCACUAUGCGUCAG [KL-SSTheoB4]"
  MEASURED QUANTITY: "apparent KD of K4 kissing-loop reporter"
  TEST VALUE: 0.377
- SEQ STRING: "UGACUGGACUGAAGGAGCGCUAAAACUCCUAGUGAUGUUAGGAAAACGAGACAAAGUCUCGAGCAGGUAGGUCGCAGUCUAGUCU [ArgBS 21 #SwitchBubble #StaticStem]"
  MEASURED QUANTITY: "apparent KD of K4 kissing-loop reporter"
  TEST VALUE: 0.131
- SEQ STRING: "AUCUGUCAAGGACAACAUUACUGAGGUGAUACCAGCAUCGAAAGAUGCCCUUGGCAGCACCAACUUGCAGUGAUGUUGCAAGUAA [BrourdMod 10 - Jieux - Exclusion - Theophylline A]"
  MEASURED QUANTITY: "apparent KD of K4 kissing-loop reporter"
  TEST VALUE: 0.332
- SEQ STRING: "CCAUCGCUAUUCGAUACCAGCUACUUAGUGAUGUUAAGUUUAUAUCCACUGUAGGUGGAAAGCCCUUGGCAGCGAAUAGUGAUGG [Theophylline B K4 25]"
  MEASURED QUANTITY: "apparent KD of K4 kissing-loop reporter"
  TEST VALUE: 0.491
- SEQ STRING: "AGUAAUGAGUGAUGUUCAAAUAGUAAGGAUACCAGUAAUUCAAAAUGCCCUUGGCAGCUUAACGCUACCAAUAGAUAAAUAAUGG [Theophilline A V2 (+2A)]"
  MEASURED QUANTITY: "apparent KD of K4 kissing-loop reporter"
  TEST VALUE: 0.144

====

# Test system: MS2 coat protein
# TEST SUMMARY: apparent KD of MS2 coat protein; designed switch direction (-1 OFF switch, 1 ON switch): 1; higher = weaker reporter binding
# CONDITION DETAILS: input ligand: none
MEASURED QUANTITY: apparent KD of MS2 coat protein (nM)

- SEQ STRING: "AGAGGAGGAGCAGGAUAUUCGAAGAAGGACGUGGAAGAAGGGUUCAUGCGAUGACAUGAGGAUCACCCAUGUACCGCGCGAUGA [AK SSNG1-V2-13] (Eterna round: R96, puzzle: Same State NG 1)"
  RESULT UNIT: "nM"
  TEST VALUE: 130
- SEQ STRING: "AGGCUCAGACGAGGAUAUGGUCAUGGCGCUUCGGCGCAUACAUGAGGAUCACCCAUGUAGGGUGAUCAGAAGGUGUCUGAGCCA [SSNG2/9-B1] (Eterna round: R96, puzzle: Same State NG 2)"
  RESULT UNIT: "nM"
  TEST VALUE: 892
- SEQ STRING: "ACAUGAGAGUUAGGAUAUCUUGUACCUACAUGUGACAUGAGGAUCACCCAUGUGGUAAGUAUGACAGAGAAGGAACAGAUAUGU [Equivalance 69 - Jieux - Same State NG 2] (Eterna round: R96, puzzle: Same State NG 2)"
  RESULT UNIT: "nM"
  TEST VALUE: 91.1
- SEQ STRING: "ACAUGAGACCUAGGAUAUCUUGUACCUACAUGUGACAUGAGGAUCACCCAUGUGGUAAGUAUGAGAGAGAAGGAGGAGAUAUGU [Equivalance 54 - Jieux - Same State NG 2] (Eterna round: R96, puzzle: Same State NG 2)"
  RESULT UNIT: "nM"
  TEST VALUE: 17.6
- SEQ STRING: "AAAAGAAACACAGGAUAUACCGCAAUUAACACGGUAGAAGGGUGGGACAUGAGGAUCACCCAUGUGACCUGAACACCAGGUCGC [Enrien] (Eterna round: R96, puzzle: Same State NG 1)"
  RESULT UNIT: "nM"
  TEST VALUE: 105
